The measured values listed here are drawn from patent US8173682B2.

target_under_test: recombinant human PARP (PARP1) (Homo sapiens)
Construct: Full length human PARP (PARP1) is assembled from PCR fragments; His6 tag with TEV site, from the pFastBac-HTb vector (own knowledge of the vector); made in house; host or cells: insect cells, baculovirus (Bac-to-Bac, Gibco-BRL)
protocol: PARP enzyme assay, Method A (radioactivity or 'ELISA' enzyme assay with partially purified enzyme)
Format: biochemical
assay_context: recombinant human PARP preparation, radioactive or ELISA enzyme assay
Counter-ions that a name gives are not always drawn.
Threshold 1 µM. IC50 below it: satisfied. IC50 at it or above: not satisfied.

[[record]]
compound = "CCc1cc(-c2ccc(S(=O)(=O)N3CCC(O)CC3)s2)c(C)[nH]c1=O [Example 87]"
target_under_test = "recombinant human PARP (PARP1) (Homo sapiens)"
class_label = "not satisfied"


q: For this compound, is IC50 lower than 1 µM? CCc1cc(-c2ccc(CNCCOC)s2)c(C)[nH]c1=O [Example 138, hydrochloride]
a: satisfied

q: For this compound, is IC50 lower than 1 µM? CCc1cc(-c2ccc(CNC3CC3)s2)c(C)[nH]c1=O [Example 142, hydrochloride]
a: not satisfied

###

Listed next: entries and their corresponding IC50.
target_under_test: recombinantly expressed human PARP-1 enzyme (Homo sapiens, UniProt P09874)
Sequence (P09874 whole entry): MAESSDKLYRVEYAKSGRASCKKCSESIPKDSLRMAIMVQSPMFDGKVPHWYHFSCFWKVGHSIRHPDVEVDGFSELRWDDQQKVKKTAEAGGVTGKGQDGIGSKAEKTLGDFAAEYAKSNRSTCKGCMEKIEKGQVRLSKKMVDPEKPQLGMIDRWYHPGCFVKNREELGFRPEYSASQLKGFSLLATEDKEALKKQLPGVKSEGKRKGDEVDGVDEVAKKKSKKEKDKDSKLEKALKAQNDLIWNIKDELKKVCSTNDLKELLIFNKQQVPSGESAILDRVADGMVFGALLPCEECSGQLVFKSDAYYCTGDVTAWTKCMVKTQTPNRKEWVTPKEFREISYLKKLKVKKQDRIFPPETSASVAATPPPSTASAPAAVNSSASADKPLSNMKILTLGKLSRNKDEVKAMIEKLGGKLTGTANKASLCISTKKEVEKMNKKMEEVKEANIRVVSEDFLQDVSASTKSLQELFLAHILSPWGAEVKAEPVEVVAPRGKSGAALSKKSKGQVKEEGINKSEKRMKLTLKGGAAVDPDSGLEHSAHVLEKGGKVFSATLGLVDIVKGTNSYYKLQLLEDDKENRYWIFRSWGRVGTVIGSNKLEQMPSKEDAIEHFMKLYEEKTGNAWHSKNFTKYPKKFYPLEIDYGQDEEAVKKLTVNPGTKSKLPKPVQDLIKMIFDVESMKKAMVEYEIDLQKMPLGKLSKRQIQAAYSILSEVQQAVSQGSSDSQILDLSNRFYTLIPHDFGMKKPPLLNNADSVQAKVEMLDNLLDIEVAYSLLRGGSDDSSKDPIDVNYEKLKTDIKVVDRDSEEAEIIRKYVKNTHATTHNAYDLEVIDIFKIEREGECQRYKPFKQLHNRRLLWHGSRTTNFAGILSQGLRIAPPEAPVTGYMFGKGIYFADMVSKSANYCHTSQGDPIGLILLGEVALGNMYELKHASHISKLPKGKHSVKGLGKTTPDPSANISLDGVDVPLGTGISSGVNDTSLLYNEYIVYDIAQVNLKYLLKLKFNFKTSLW
protocol: PARP enzyme assay, Method B (tritium-labeled NAD incorporation)
Format: biochemical
assay_context: Method B; 200 μM NAD, room temperature 1 hour, pH 8.0; read-out: IC50 (μM)/Method B
Could you give me the number in µM? Just the number is fine.

Before answering, review these 3 worked examples.
[[record]]
compound = "CCc1cc(-c2cncc(C(=O)Nc3ccc(C(C)=O)cc3)c2)c(C)[nH]c1=O"
quantity = "IC50"
value_reported = 0.64

[[record]]
compound = "CCc1cc(-c2cccc(NS(=O)(=O)c3ccc(NC(C)=O)cc3)n2)c(C)[nH]c1=O"
quantity = "IC50"
value_reported = 7.9

[[record]]
compound = "CCc1cc(-c2cncc(C(=O)NCC3CCC(C#N)CC3)c2)c(C)[nH]c1=O (stereo not shown)"
quantity = "IC50"
value_reported = 2.22


Would you kindly look at the next entry?
IC50 measured on `CCc1cc(-c2cncc(C(=O)Nc3cccc(OC)c3)c2)c(C)[nH]c1=O` = 0.85

###

Listed next: entries and their corresponding IC50.
target_under_test: recombinant human PARP (PARP1) (Homo sapiens, UniProt P09874)
Construct: Full length human PARP (PARP1) is assembled from PCR fragments; His6 tag with TEV site, from the pFastBac-HTb vector (own knowledge of the vector); made in house; host or cells: insect cells, baculovirus (Bac-to-Bac, Gibco-BRL)
Sequence (P09874 whole entry, the tested form may be a part): as the sequence (P09874 whole entry) above
protocol: PARP enzyme assay, Method A (radioactivity or 'ELISA' enzyme assay with partially purified enzyme)
Type: biochemical
assay_context: recombinant human PARP preparation, radioactive or ELISA enzyme assay
Counter-ions that a name gives are not always drawn.
Could you give me the number in µM? Just the number is fine.

[[record]]
compound = "CCc1cc(-c2ccc(CN3CCC(OC)C3)s2)c(C)[nH]c1=O (stereo not drawn) [Example 174, hydrochloride]"
readout_units = "µM"
value_reported = 1.3


IC50 measured on CCc1cc(-c2ccc(S(=O)(=O)NCCc3cccnc3)o2)c(C)[nH]c1=O [Example 48, hydrochloride] = 0.36

IC50 measured on CCc1cc(-c2ccc(CNC3CCCCC3)s2)c(C)[nH]c1=O [Example 190, hydrochloride] = 0.54

IC50 measured on CCc1cc(-c2ccc(S(=O)(=O)NCCN3CCCCC3)s2)c(C)[nH]c1=O [Example 69, hydrochloride] = 0.26

IC50 measured on `CCc1cc(-c2nc(C)no2)c(C)[nH]c1=O` = 0.23

IC50 measured on CCc1cc(-c2ccc(CNCCO)s2)c(C)[nH]c1=O [Example 128, hydrochloride] = 0.46

IC50 measured on CCc1cc(-c2ccc(CN3CCC(=O)CC3)s2)c(C)[nH]c1=O [Example 150, hydrochloride] = 1.3

IC50 measured on `CCc1cc(-c2ncon2)c(C)[nH]c1=O` = 0.67

IC50 measured on `CCc1cc(-c2n[nH]c(C)n2)c(C)[nH]c1=O` = 0.17

IC50 measured on CCc1cc(-c2ccc(S(=O)(=O)NCC3CCNCC3)s2)c(C)[nH]c1=O [Example 41-2, hydrochloride] = 0.52

IC50 measured on CCc1cc(-c2ccc(S(=O)(=O)NCc3cncc(C)n3)s2)c(C)[nH]c1=O [Example 73, hydrochloride] = 0.42

IC50 measured on CCc1cc(-c2ccc(S(=O)(=O)NCCCN(CC)CC)s2)c(C)[nH]c1=O [Example 96, hydrochloride] = 0.72
